Test system: HepG2
Test Protocol: cytotoxicity call (relative viability < 0.9)
Condition Set: 10 µM
Hit rate of the full screen: of about 39,000 compounds, about 3,300 (8.5%) were called active. The list comes from a sample in which actives are over-represented; it also holds close analogues and randomly drawn compounds.
Labels: active, inactive

# Compound, Classification
measured = [
    ("C[C@@H]1CN([C@H](C)CO)C(=O)CCCn2cc(nn2)CO[C@@H]1CN(C)S(=O)(=O)c1ccccc1C#N", "inactive"),
    ("COc1ccc(NC(=O)O[C@H]2[C@@H]3OC(=O)[C@@H](Cc4ccc5ccccc5c4)C/C=C/C[C@H](Cc4ccc5ccccc5c4)C(=O)O[C@H]3[C@@H](OC)O[C@@H]2CO)cc1", "active"),
    ("C[C@H]1CC/C=C\\[C@H]2O[C@@]34C=CCN(CCN5CCOCC5)C(=O)[C@H]3N(CCCO)C(=O)[C@@H]4[C@@H]2C(=O)O1", "inactive"),
    ("C[C@H](CO)N1C[C@H](C)[C@@H](CN(C)C(=O)Cc2ccccn2)Oc2ncc(C#CC3CCCCC3)cc2C1=O", "inactive"),
    ("C[C@@H]1CN([C@H](C)CO)C(=O)c2c(c3ccccc3n2C)-c2ccccc2CO[C@@H]1CN(C)C(=O)Nc1ccc(F)cc1", "inactive"),
    ("NCCc1cc2nc(-c3ccncc3)ccn2n1", "inactive"),
    ("CN(C)Cc1ccc(O)c(CN(C)C)n1", "inactive"),
    ("C=CCC[C@@H](Cc1ccc(F)cc1)C(=O)OC[C@@H](NC(=O)[C@@H](CC=C)CC(=O)N(CCO)Cc1ccccc1)C(C)(C)C", "inactive"),
    ("Cc1noc(C)c1NC(=O)Nc1ccc2c(c1)C(=O)N([C@@H](C)CO)C[C@H](C)[C@@H](CN(C)Cc1ccc(Cl)c(Cl)c1)O2", "inactive"),
    ("COc1ccc(S(=O)(=O)N[C@@H]2CC[C@@H](CC(=O)N3CCC(Cc4ccccc4)CC3)O[C@H]2CO)cc1", "inactive"),
    ("CCOC(=O)[C@H]1C/C=C/C[C@H](C(=O)OCC)C(=O)O[C@H]2[C@@H](OC)O[C@H](CO)[C@@H](OC(=O)Nc3ccc(OC)cc3)[C@@H]2OC1=O", "inactive"),
    ("C[C@@H]1CCCCO[C@H](CN(C)Cc2ccc(Cl)c(Cl)c2)[C@H](C)CN([C@@H](C)CO)C(=O)c2cc(NS(=O)(=O)c3ccccc3)ccc2O1", "inactive"),
    ("CCOC(=O)[C@H]1C/C=C/C[C@H](C(=O)OCC)C(=O)O[C@H]2[C@@H](OC)O[C@H](CO)[C@@H](OC(=O)c3ccc(Br)cc3)[C@@H]2OC1=O", "inactive"),
    ("C[C@H](CO)N1C[C@H](C)[C@H](CN(C)S(C)(=O)=O)Oc2cc(-c3ccc(F)cc3)ccc2S1(=O)=O", "inactive"),
    ("C[C@@H]1CCCCO[C@H](CN(C)S(C)(=O)=O)[C@@H](C)CN([C@H](C)CO)C(=O)c2cc(NC(=O)Nc3cccc4ccccc34)ccc2O1", "inactive"),
    ("CCOC(=O)N(C)C[C@H]1OCc2cn(nn2)CCCC(=O)N([C@@H](C)CO)C[C@H]1C", "inactive"),
    ("C[C@@H]1CN([C@H](C)CO)C(=O)Cc2cc(NC(=O)Nc3ccc(C(F)(F)F)cc3)ccc2O[C@H]1CN(C)C(=O)Nc1ccccc1", "inactive"),
    ("CCc1nc2ccc(C(=O)NCc3ccccc3OC)cn2c1N(CC)Cc1cccc(Br)c1", "inactive"),
    ("COc1ccc(NC(=O)Nc2ccc3c(c2)C(=O)N([C@H](C)CO)C[C@@H](C)[C@@H](CN(C)S(=O)(=O)c2cccs2)OCCCC[C@H](C)O3)cc1", "inactive"),
    ("COc1ccccc1S(=O)(=O)N(C)C[C@@H]1Oc2cc(C#CCC(C)C)ccc2S(=O)(=O)N([C@@H](C)CO)C[C@H]1C", "inactive"),
    ("OC[C@@H](O)[C@@H](O)[C@@H](O)/C=N/Nc1ccccc1", "inactive"),
    ("C[C@@H]1CCCCO[C@H](CN(C)Cc2ccc(Cl)c(Cl)c2)[C@@H](C)CN([C@H](C)CO)C(=O)c2cc(NS(=O)(=O)c3ccccc3)ccc2O1", "inactive"),
    ("C[C@@H]1CCCCO[C@@H](CN(C)Cc2ccc(Cl)c(Cl)c2)[C@H](C)CN([C@H](C)CO)C(=O)c2cc(NS(=O)(=O)c3ccccc3)ccc2O1", "active"),
    ("C[C@H](CO)N1C[C@H](C)[C@H](CN(C)S(=O)(=O)c2cccs2)Oc2ccc(NC(=O)Cn3cnnn3)cc2C1=O", "inactive"),
    ("C[C@@H]1CCCCO[C@H](CN(C)Cc2ccc(Cl)c(Cl)c2)[C@@H](C)CN([C@@H](C)CO)C(=O)c2cc(NS(=O)(=O)c3ccccc3)ccc2O1", "active"),
    ("Nc1nc(=O)c2ncn(CCC(CO)CO)c2[nH]1", "inactive"),
    ("C[C@@H]1CCCCO[C@@H](CN(C)C(=O)Nc2ccc3c(c2)OCO3)[C@@H](C)CN([C@H](C)CO)C(=O)c2cc(NC(=O)Nc3cccc4ccccc34)ccc2O1", "inactive"),
    ("C[C@@H]1CN([C@H](C)CO)C(=O)c2cc(NC(=O)CCC(F)(F)F)ccc2O[C@@H](C)CCCCO[C@@H]1CN(C)Cc1ccncc1", "inactive"),
    ("N#CCC(=O)N1CCSCC1", "inactive"),
    ("O=C(C[C@H]1C=C[C@H](NC(=O)Cc2ccccn2)[C@H](CO)O1)NCCc1ccncc1", "inactive"),
]

----------
Test system: HepG2
Test Protocol: cytotoxicity call (relative viability < 0.9)
Condition Set: 10 µM
In all, about 39,000 compounds went through this assay and about 3,300 (8.5%) were called active. The sample holds actives, similar compounds and a random draw of the others, so the mix is not that of the screen.
Labels: 1 = active, 0 = inactive

# Compound, Classification
records = [
    ("C[C@H](CO)N1C[C@H](C)[C@H](CN(C)Cc2cccc(C(F)(F)F)c2)Oc2ncc(-c3ccccc3)cc2C1=O", 0),
    ("C[C@H](CO)N1C[C@H](C)[C@H](CN(C)Cc2cccc(C(F)(F)F)c2)Oc2ncc(/C=C/c3ccccc3)cc2C1=O", 1),
    ("C[C@H](CO)N1C[C@H](C)[C@H](CN(C)Cc2cccc(C(F)(F)F)c2)Oc2ncc(-c3cccc(C(F)(F)F)c3)cc2C1=O", 0),
    ("C[C@H](CO)N1C[C@H](C)[C@H](CN(C)Cc2cccc(C(F)(F)F)c2)Oc2ncc(-c3cccc(F)c3)cc2C1=O", 1),
]

----------
Tested on: HepG2
Test Protocol: cytotoxicity call (relative viability < 0.9)
Condition Set: 10 µM
The whole screen tested about 39,000 compounds, of which about 3,300 (8.5%) were called active. This is one part of a sample in which actives are shown more often than they occur.
Attribute Measured: cytotoxicity call

# Compound, Test System, Test Result
data = [
    ("CN(C)CCNC(=O)c1ccccn1", "HepG2", "inactive"),
    ("C[C@@H]1CN([C@H](C)CO)C(=O)Cc2cc(NS(=O)(=O)c3ccccc3)ccc2O[C@H]1CN(C)Cc1ccc(Oc2ccccc2)cc1", "HepG2", "active"),
    ("C[C@@H]1CN([C@@H](C)CO)C(=O)Cc2cc(NS(C)(=O)=O)ccc2O[C@H]1CN(C)S(=O)(=O)c1ccccc1", "HepG2", "inactive"),
    ("C[C@@H]1CN([C@@H](C)CO)C(=O)c2cc(NC(=O)Nc3ccc(C(F)(F)F)cc3)ccc2O[C@@H](C)CCCCO[C@@H]1CN(C)C(=O)CCCN(C)C", "HepG2", "inactive"),
    ("CN(C)CCC(c1ccc(Br)cc1)c1ccccn1.O=C(O)C=CC(=O)O (configuration not stated)", "HepG2", "active"),
    ("C[C@H](CO)N1C[C@H](C)[C@H](CN(C)Cc2ccc(Oc3ccccc3)cc2)Oc2ccc(NS(=O)(=O)c3ccccc3)cc2CC1=O", "HepG2", "inactive"),
    ("CN(C)CCC(c1ccccc1)c1ccccn1.O=C(O)C=CC(=O)O (configuration not stated)", "HepG2", "inactive"),
    ("C[C@@H]1CN([C@@H](C)CO)C(=O)Cc2cc(NS(=O)(=O)c3ccccc3)ccc2O[C@H]1CN(C)Cc1ccc(Oc2ccccc2)cc1", "HepG2", "inactive"),
    ("C[C@@H]1CCCCO[C@@H](CN(C)C(=O)Nc2cccc3ccccc23)[C@@H](C)CN([C@H](C)CO)C(=O)c2cc(NC(=O)c3ccncc3)ccc2O1", "HepG2", "inactive"),
    ("C[C@H]1CN([C@@H](C)CO)C(=O)Cc2cc(NS(=O)(=O)c3ccccc3)ccc2O[C@@H]1CN(C)Cc1ccc(Oc2ccccc2)cc1", "HepG2", "inactive"),
    ("CN(C)CCOC(c1ccc(Cl)cc1)c1ccccn1.O=C(O)C=CC(=O)O (configuration not stated)", "HepG2", "inactive"),
    ("CCCCCS(=O)(=O)CCCCCCCCCCn1c(-c2ccc(O)cc2)c(C)c2cc(O)ccc21", "HepG2", "active"),
    ("O=C(C[C@@H]1CC=CC[C@H](NC(=O)OCC2c3ccccc3-c3ccccc32)C(=O)O[C@H](c2ccccc2)CNC1=O)N[C@@H](CO)Cc1ccccc1", "HepG2", "inactive"),
    ("CC(=O)N(O)CCC[C@H]1NC(=O)CNC(=O)CNC(=O)CNC(=O)[C@@H](CCCN(O)C(C)=O)NC(=O)[C@@H](CCCN(O)C(C)=O)NC1=O", "HepG2", "inactive"),
    ("CC(=O)Oc1ccc(C(c2ccc(OC(C)=O)cc2)c2ccccn2)cc1", "HepG2", "inactive"),
    ("CCCCC(=O)c1ccc(O)cc1", "HepG2", "inactive"),
    ("Cc1noc(C)c1NC(=O)N(C)C[C@@H]1Oc2c(NC(=O)NC(C)C)cccc2C(=O)N([C@H](C)CO)C[C@@H]1C", "HepG2", "inactive"),
]
